system: human FPR1 (Homo sapiens (Human), UniProt P21462)
Sequence (P21462 whole entry): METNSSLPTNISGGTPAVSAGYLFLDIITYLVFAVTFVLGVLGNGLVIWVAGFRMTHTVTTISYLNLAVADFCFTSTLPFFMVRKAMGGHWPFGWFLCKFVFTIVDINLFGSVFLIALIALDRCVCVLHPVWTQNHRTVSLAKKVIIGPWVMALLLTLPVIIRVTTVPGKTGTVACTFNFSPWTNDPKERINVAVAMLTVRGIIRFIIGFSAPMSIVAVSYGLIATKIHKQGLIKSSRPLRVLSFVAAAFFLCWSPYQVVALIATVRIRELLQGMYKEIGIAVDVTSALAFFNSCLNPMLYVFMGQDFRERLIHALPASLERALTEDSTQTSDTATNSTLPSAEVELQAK
assay.protocol: FPR1 cyclic adenosine monophosphate (cAMP) assay
condition.description: CHO cells overexpressing human FPR1; forskolin 10 µM; inhibition of cAMP production; read-out: hFPR1 cAMP EC50
property.label: EC50 (nM)

Some solved entries appear below for comparison.
INSERT INTO assay_data (molecule, reading_unit, value_reported) VALUES
  ('COc1cc(F)c([C@@H]2CN(c3nc(N4C[C@@H](C)N(C)[C@@H](C)C4)ccc3C#N)C(=O)[C@H]2NC(=O)c2ccc(OC(F)F)cc2)c(F)c1 [Example 332]', 'nM', 5800),
  ('COc1cc(F)c([C@@H]2CN(c3cccn(CCO)c3=O)C(=O)[C@H]2NC(=O)c2ccc(OC(F)(F)F)cc2)c(F)c1 [Example 174]', 'nM', 67),
  ('CCn1cccc(N2C(=O)[C@@H](NC(=O)c3ccc(OC(F)(F)F)cc3)[C@H](c3c(F)cc(OC)cc3F)[C@@H]2C)c1=O [Example 93]', 'nM', 68),
  ('COc1cc(F)c([C@@H]2CN(c3nc(N4C(=O)CC[C@H]4CO)ccc3F)C(=O)[C@H]2NC(=O)c2ccc(OC(F)(F)F)cc2)c(F)c1 [Example 246]', 'nM', 280);

(A) COc1cc(F)c([C@@H]2CN(c3cncn(C(CO)C(F)(F)F)c3=O)C(=O)[C@H]2NC(=O)c2ccc(Cl)cc2)c(F)c1 (stereo partly drawn) [Example 517]
(B) COc1cc(F)c([C@@H]2CN(c3cccn(CC(C)OC)c3=O)C(=O)[C@H]2NC(=O)c2ccc(OC(F)F)cc2)c(F)c1 (stereo partly drawn) [Example 253]
In terms of reported EC50, does A or B have the smaller number? Give the label under which the chosen entry appears.
B

###

system: human FPR2 (Homo sapiens (Human), UniProt P25090)
Sequence (P25090 whole entry): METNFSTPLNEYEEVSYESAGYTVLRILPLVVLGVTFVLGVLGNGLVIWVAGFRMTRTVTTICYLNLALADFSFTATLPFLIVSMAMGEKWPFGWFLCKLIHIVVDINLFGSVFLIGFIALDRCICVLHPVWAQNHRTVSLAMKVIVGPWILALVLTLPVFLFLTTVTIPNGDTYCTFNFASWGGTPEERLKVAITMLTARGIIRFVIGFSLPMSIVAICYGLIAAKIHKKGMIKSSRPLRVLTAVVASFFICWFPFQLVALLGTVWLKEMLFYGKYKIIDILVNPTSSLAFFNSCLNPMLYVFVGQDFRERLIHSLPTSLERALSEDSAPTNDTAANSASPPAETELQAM
assay.protocol: FPR2 cyclic adenosine monophosphate (cAMP) assay
Format: cell-based
condition.description: CHO cells overexpressing human FPR2; forskolin 5 µM; inhibition of cAMP production; read-out: hFPR2 cAMP2 EC50
property.label: EC50 (nM)

Some solved entries appear below for comparison.
INSERT INTO measurements (compound, value_reported) VALUES
  ('COc1cc(F)c([C@@H]2CN(c3nc(C4CCN(CCO)CC4)ccc3F)C(=O)[C@H]2NC(=O)c2ccc(OC(F)F)cc2)c(F)c1', 1.9),
  ('COc1cc(F)c([C@@H]2CN(Cc3ccccc3P(C)(C)=O)C(=O)[C@H]2NC(=O)c2ccc(OC(F)F)cc2)c(F)c1', 37),
  ('COc1cc(F)c([C@@H]2CN(c3c(C)ccn(C)c3=O)C(=O)[C@H]2NC(=O)c2ccc(OC(F)(F)F)cc2)c(F)c1', 8.7),
  ('COc1cc(F)c([C@@H]2CN(c3c(C)ccn(CC4CC4)c3=O)C(=O)[C@H]2NC(=O)c2ccc(OC(F)(F)F)cc2)c(F)c1', 3.9),
  ('COc1cc(F)c([C@@H]2CN(c3c(C)ccn(CC4CCOCC4)c3=O)C(=O)[C@H]2NC(=O)c2ccc(OC(F)F)cc2)c(F)c1', 3.2),
  ('COc1cc(F)c([C@@H]2CN(c3cccc(=O)n3C)C(=O)[C@H]2NC(=O)c2ccc(OC(F)F)cc2)c(F)c1', 50);

(I) COc1cc(F)c([C@@H]2CN(c3cccn(CC(O)C(F)(F)F)c3=O)C(=O)[C@H]2NC(=O)c2ccc(OC(F)F)cc2)c(F)c1 (single isomer, unassigned) [Example 4]
(II) COc1cc(F)c([C@@H]2CN(c3cccn4cc(CO)nc34)C(=O)[C@H]2NC(=O)c2ccc(Cl)cc2)c(F)c1
(III) COCC(CO)n1cccc(N2C[C@@H](c3ccc(OC)cc3)[C@H](NC(=O)c3ccc(OC(F)F)cc3)C2=O)c1=O (stereo partly shown) [Example 315]
Place the items in sequence of falling EC50. Reply: labels, ordered per the request.
III, II, I
(III: 10 nM, II: 3.4 nM, I: 1.7 nM)

(1) COc1cc(F)c([C@H]2[C@H](NC(=O)c3ccc(OC(F)F)cc3)C(=O)N(c3cccc(C4CCCN(CCO)C4)n3)[C@H]2C)c(F)c1 (stereo partly shown) [Example 515]
(2) COc1cc(C2CC2)nc(N2C[C@@H](c3c(F)cc(OC)cc3F)[C@H](NC(=O)c3ccc(OC(F)F)cc3)C2=O)c1
In terms of reported EC50, does 1 or 2 have the smaller number? Give the label under which the chosen entry appears.
1
(1: 2.1 nM, 2: 130 nM)
